Data origin: PubChem BioAssay (NCATS)

# system under test: Rap guanine nucleotide exchange factor 3 (Homo sapiens)
# protocol details: Counterscreen qHTS for agonist of cAMP-regulated guanine nucleotide exchange factor 3 (EPAC1) (AID 1645889); also: % of control where 0% means no effect; nearly all actives have a fitted effect of over 40% in size
# reported conditions: EPAC1 Rap1B-BODIPY-GDP exchange, fluorescence; series mostly up to 154 µM
Inconclusive results are not listed. Active and inactive are the calls of the source. Calls follow the shape of the dose curve; as a rule, active = well fitted activation curve with a large enough effect; inconclusive = small, poorly fitted or top-dose-only effect, or another doubt; inactive = no such curve, though single readings can be large or run the other way.
recorded endpoint: activation

                                   compound                          result
0  CCc1ccc(/C=C2\SC(=S)N(CCC(=O)Nc3cc(C)on3)C2=O)cc1                        inactive
1  Cn1c(N)c(C(=O)COC(=O)COc2ccccc2C#N)c(=O)n(C)c1=O   3.75% [at 30.8 µM] (inactive)
2  CC(NCc1cccn1C)c1ccccc1 (stereo unspecified)                        inactive
3  CC(C)(C)[C@H](N)C(=O)N[C@H]1CCC2C3CC=C4C[C@@H](O)CC[C@]4(C)C3CC[C@@]21C (stereo partly specified)   31.4% [at 30.8 µM] (inactive)
4                Cc1nnnn1-c1ccc(CC(=O)O)cc1  -1.16% [at 30.8 µM] (inactive)

# ---- query compound ----
The recorded activation for entry CC(Sc1ccccc1)C(=O)NNC(=O)c1csc(N2CCOCC2)n1 (stereo unspecified) equals 28.3% [at 30.8 µM] (inactive)

* * *

# protocol details: qHTS Assay for Lipid Storage Modulators (AID 1519)
# reported conditions: Drosophila S3 cells, BODIPY lipid droplet/cell ratio, laser cytometry; measured here: cell count channel max response; cells loaded with oleic acid
Inconclusive results are not listed.
// max response lookup, one value per entry
Give the number; % is assumed, so skip it.

                                   compound  readout_number
0  CCCCCCCCCCCCCCC(C(=O)OC)C(O)(CC(=O)OC)C(=O)OC (stereo unspecified)           -1.14
1  CC(=O)[C@H]1CC[C@@H]2[C@H]3CC=C4C[C@@H](O)CC[C@]4(C)[C@H]3CC[C@]12C           -11.5

The recorded max response for entry `COc1cc(O)c(C)c(O)c1` equals 3.91

The recorded max response for entry CC(=O)OC1CC2C(C)(C)C(O)CCC2(C)C2CC[C@]3(C)C(=CC(=O)OC3c3ccoc3)C12C (stereo partly specified) equals -9.39

The recorded max response for entry `COc1cccc2c1CCC1=CC(=O)CC[C@@]12C` equals 2.03

The recorded max response for entry `C[C@]12CC[C@@H]3C(=CCc4cc(O)ccc43)[C@@H]1CCC2=O` equals -14.4

* * *

# protocol details: qHTS Assay for Lipid Storage Modulators (AID 1519)
# reported conditions: Drosophila S3 cells, BODIPY lipid droplet/cell ratio, laser cytometry; measured here: cell count channel max response; cells loaded with oleic acid
Records with an inconclusive call do not appear.
recorded endpoint: max response (%)
Give the number; % is assumed, so skip it.

Some solved entries appear below for comparison.
compound	recorded endpoint	scale unit	readout number
CCC(/C=C/C(C)C1CCC2C3CC=C4CC(O)CC[C@@]4(C)C3CC[C@@]12C)C(C)C (some centres undefined)	max response	%	13.1
COc1ccc(C(=O)c2ccccc2)c(O)c1O	max response	%	-24.4
COc1c(O[C@H]2O[C@@H](CO)[C@@H](O)[C@@H](O)[C@@H]2O)cc2c(c1OC)-c1ccc(SC)c(=O)cc1[C@H](NC(C)=O)CC2	max response	%	3.12
C[C@@H]1O[C@H](O[C@@H]2[C@@H](Oc3cc(O)c4c(c3)O[C@H](c3ccc(O)cc3)CC4=O)O[C@@H](CO)[C@@H](O)[C@H]2O)[C@@H](O)[C@H](O)[C@@H]1O	max response	%	-4.7

The recorded max response for entry [N-]=[N+]=Nc1nc2c(N)ncnc2n1C1OC(CO)C(O)C1O (centres undefined) equals 12.5

The recorded max response for entry CC(C)=CCCC(C)C1CC[C@@]2(C)C3=C(CC[C@@]12C)C1(C)CCC(O)C(C)(C)C1CC3 (some centres undefined) equals 10.4

The recorded max response for entry `NCc1ccccc1CC(=O)N[C@@H]1C(=O)N2C(C(=O)O)=C(CSc3nnnn3CC(=O)O)CS[C@@H]12` equals -14.4

* * *

# Tested on: AA1029
# protocol details: qHTS profiling for inhibitors of Plasmodium falciparum proliferation (AID 504749); also: nearly all actives have a fitted effect of over 60% in size
# reported conditions: P. falciparum in erythrocytes, SYBR Green DNA, 72 h; series mostly up to 12.8 µM
Records with an inconclusive call do not appear. The source made the active and inactive calls. Calls come from the whole dose curve; as a rule, active = well fitted inhibition curve with a large enough effect; inconclusive = small, poorly fitted or top-dose-only effect; inactive = flat fitted curve, though single readings scatter.
Answer with one of the outcomes active, inactive

Worked cases, answers included:
                                   compound  system_under_test     label
0  CCC[C@@H]1O[C@@H]2C[C@@H]3[C@H]4CCC5=CC(=O)C=C[C@@]5(C)[C@H]4[C@H](O)C[C@@]3(C)[C@@]2(C(=O)CO)O1             AA1029    active
1  NCc1ccccc1CC(=O)N[C@@H]1C(=O)N2C(C(=O)O)=C(CSc3nnnn3CC(=O)O)CS[C@@H]12             AA1029  inactive
2           CC[C@](C)(CN(C)C)OC(=O)c1ccccc1             AA1029  inactive
3  C[C@H](Oc1ccccc1)C(=O)N[C@@H]1C(=O)N2[C@@H]1SC(C)(C)[C@@H]2C(=O)O             AA1029  inactive
4  C[C@]12CCC(=O)C=C1CCC1C2C(=O)C[C@]2(C)C1CC[C@]2(O)C(=O)CO (stereo partly drawn)             AA1029  inactive

Q) Assay outcome for `CCCC[C@H](CC)CN1CN(C[C@@H](CC)CCCC)CC(C)(N)C1` : what was it?
A) inactive

Q) Assay outcome for `CCC(=O)[C@@]1(C)[C@H](C)C[C@@H]2[C@@H]3CCC4=CC(=O)C=C[C@@]4(C)[C@H]3[C@H](O)C[C@]21C` : what was it?
A) inactive

Q) Assay outcome for Nc1nc2ncc(CNc3ccc(C(=O)NC(CCC(=O)O)C(=O)O)cc3)nc2c(=O)[nH]1 (stereo not drawn) : what was it?
A) inactive

* * *

# system under test: Cytochrome P450 3A4 (Homo sapiens) (UniProt P08684)
# Sequence (P08684 whole entry, looked up): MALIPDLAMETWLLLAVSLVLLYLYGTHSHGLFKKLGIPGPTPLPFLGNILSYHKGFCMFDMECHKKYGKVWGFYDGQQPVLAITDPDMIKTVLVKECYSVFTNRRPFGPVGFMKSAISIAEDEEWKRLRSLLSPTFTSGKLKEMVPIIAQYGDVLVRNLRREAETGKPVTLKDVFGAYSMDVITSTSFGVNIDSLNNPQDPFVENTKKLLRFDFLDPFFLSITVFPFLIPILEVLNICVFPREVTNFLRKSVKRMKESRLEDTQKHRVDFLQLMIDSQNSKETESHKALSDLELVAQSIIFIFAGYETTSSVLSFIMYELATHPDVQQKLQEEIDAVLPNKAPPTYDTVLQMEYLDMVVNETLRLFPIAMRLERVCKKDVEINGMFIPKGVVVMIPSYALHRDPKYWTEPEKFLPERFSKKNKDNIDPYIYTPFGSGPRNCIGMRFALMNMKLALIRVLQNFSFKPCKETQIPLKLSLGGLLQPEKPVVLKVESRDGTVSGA
# protocol details: qHTS Assay for Activators of Cytochrome P450 3A4 (AID 885); also: nearly all actives have a fitted effect of over 65% in size
# reported conditions: recombinant CYP3A4, Luciferin-PPXE luminescence, 60 min; series mostly up to 57.1 µM
Activity calls are given as the source filed them. Calls follow the shape of the dose curve; as a rule, active = well fitted activation curve with a large enough effect; inconclusive = small, poorly fitted or top-dose-only effect; inactive = no such curve, though single readings can be large or run the other way.
Answer with one of the outcomes y = active, n = inactive

compound	label
CC(=O)OC1CCC2(C)C3=C(CCC2C1(C)C)[C@]1(C)CCC(C(C)CCC=C(C)C)[C@]1(C)CC3 (stereo partly drawn)	n

Q) Assay outcome for `COc1cc(O)c(C(=O)c2ccccc2)cc1O` : what was it?
A) n

Q) Assay outcome for `COc1ccc2c(c1)OC/C(=C\c1ccc(OC)c(O)c1)C2=O` : what was it?
A) n

Q) Assay outcome for `O=c1cc(-c2ccccc2)oc2cccc(O)c12` : what was it?
A) n

Q) Assay outcome for `COc1cccc(O)c1O` : what was it?
A) n

Q) Assay outcome for `C#C[C@]1(O)CC[C@@H]2[C@H]3CCc4cc(OC)ccc4[C@@H]3CC[C@@]21C` : what was it?
A) n

Q) Assay outcome for COc1c(-c2coc3cc4c(cc3c2=O)CC(O)C(C)(C)O4)ccc2c1C=CC(C)(C)O2 (stereo not drawn) : what was it?
A) y

Q) Assay outcome for COC(=O)CC1C(C)(C)C(=O)C2CC3=C(CC[C@]4(C)C3=CC(=O)OC4c3ccoc3)[C@@]1(C)C2=O (stereo partly drawn) : what was it?
A) n

Q) Assay outcome for `OCCN1CCN(CCC=C2c3ccccc3Sc3ccc(Cl)cc32)CC1` : what was it?
A) n

Q) Assay outcome for `CC(C)(N=NC(C)(C)C(=N)N)C(=N)N` : what was it?
A) n

Q) Assay outcome for COC(=O)[C@]1(C)CCC[C@]2(C)c3ccc(C(C)C)cc3C(=O)CC12 (stereo partly drawn) : what was it?
A) n

Q) Assay outcome for CC(C)c1c(O)ccc2c1CCC1[C@@](C)(C=O)CCC[C@@]21C (stereo partly drawn) : what was it?
A) n

Q) Assay outcome for COC1C[C@@H](O[C@@H]2C(C)C(=O)OC(C)C(C)C(O)C(C)C(=O)[C@@]3(CO3)CC(C)C(OC3OC(C)CC(N(C)C)C3O)C2C)OC(C)[C@@H]1O (stereo partly drawn) : what was it?
A) n

Q) Assay outcome for CC(=O)OC1CC2C(C)(C)C(=O)C=C[C@]2(C)C2CC[C@@]3(C)C(c4ccoc4)OC(=O)C4O[C@@]43[C@]12C (stereo partly drawn) : what was it?
A) n

Q) Assay outcome for CCOC(=O)C1=CC(OC(CC)CC)C(NC(C)=O)C(N)C1 (stereo not drawn) : what was it?
A) n

Q) Assay outcome for CC(=O)Oc1cc2c(c(C)c1OC(C)=O)CC=C1[C@]3(C)CC[C@]4(C)CC[C@@](C)(C(=O)O)CC4[C@]3(C)CC[C@]12C (stereo partly drawn) : what was it?
A) n

Q) Assay outcome for CC1(C)CC[C@]2(C(=O)O)CC[C@@]3(C)C(=CCC4[C@@]5(C)CCC(O)[C@@](C)(CO)C5CC[C@@]43C)C2C1 (stereo partly drawn) : what was it?
A) n

Q) Assay outcome for COC(=O)CC1C(C)(C)C(OC(C)=O)C2CC3=C4CC(=O)OC(c5ccoc5)[C@]4(C)CCC3[C@@]1(C)C2=O (stereo partly drawn) : what was it?
A) n

Q) Assay outcome for `NC(=O)N/N=C\c1ccc([N+](=O)[O-])o1` : what was it?
A) n

Q) Assay outcome for C=C1C2CC[C@@]3(C)C(c4ccoc4)OC(=O)C[C@@]13OC1CC(=O)C(C)(C)C(C(O)C(=O)OC)[C@]12C (stereo partly drawn) : what was it?
A) n

Q) Assay outcome for `Cc1cc(=O)oc2c(O)c(O)ccc12` : what was it?
A) n

Q) Assay outcome for COC(=O)CC1C(C)(C)C(O)C2CC3=C4CC(O)OC(c5ccoc5)[C@]4(C)CCC3[C@@]1(C)C2=O (stereo partly drawn) : what was it?
A) n

Q) Assay outcome for `c1ccc2c(c1)CCCc1cc(NCCN3CCOCC3)nnc1-2` : what was it?
A) n

Q) Assay outcome for `CC[C@@H]1OC(=O)[C@H](C)[C@H](O[C@@H]2C[C@](C)(OC)[C@H](O)[C@H](C)O2)[C@H](C)[C@H](O[C@@H]2O[C@@H](C)C[C@@H](N(C)C)[C@@H]2O)[C@](C)(O)C[C@H](C)C(=NOCOCCOC)[C@H](C)[C@H](O)[C@]1(C)O` : what was it?
A) n

Q) Assay outcome for `COc1cc(OC)c(C(C)=O)c(O)c1C` : what was it?
A) n

Q) Assay outcome for `CC(C)=CCc1c2c(c(O)c3c(=O)c(O)c(-c4ccccc4)oc13)C=CC(C)(C)O2` : what was it?
A) n
